Catalogue of pIC50 values
Target: MMP2 (Homo sapiens)
Sequence (P08253 110-660): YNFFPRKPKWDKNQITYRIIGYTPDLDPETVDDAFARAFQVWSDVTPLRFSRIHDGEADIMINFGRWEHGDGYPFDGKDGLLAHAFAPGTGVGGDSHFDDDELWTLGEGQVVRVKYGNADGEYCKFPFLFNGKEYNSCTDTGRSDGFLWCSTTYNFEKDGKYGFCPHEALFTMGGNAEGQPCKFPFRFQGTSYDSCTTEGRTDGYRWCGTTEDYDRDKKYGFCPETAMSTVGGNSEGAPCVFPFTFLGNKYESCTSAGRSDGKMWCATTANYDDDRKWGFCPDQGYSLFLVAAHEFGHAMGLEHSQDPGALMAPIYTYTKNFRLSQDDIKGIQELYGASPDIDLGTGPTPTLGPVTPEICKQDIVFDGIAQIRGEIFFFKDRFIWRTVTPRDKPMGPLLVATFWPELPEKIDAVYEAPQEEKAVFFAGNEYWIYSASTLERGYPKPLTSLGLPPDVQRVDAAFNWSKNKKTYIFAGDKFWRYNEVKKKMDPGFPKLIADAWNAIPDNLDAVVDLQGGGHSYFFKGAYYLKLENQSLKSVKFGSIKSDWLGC
Assay: Inhibitory effects on human MMP2 (Method 1), enzyme assay with MOCAc-Pro-Leu-Gly-Leu-A2pr(Dnp)-Ala-Arg-NH2 substrate, 96-well
Type: biochemical
Settings: Test Example No. 1-1 (Method 1, 96-well microplate); read-out: Human MMP2, IC50
*1 amine or outer side, *2 acyl side, *3 side chain or, on linkers, in order; H or OH if unused. Where a SMILES comes first, the peptide text is derived from it. [ ]: non-standard residue; d: D form. The star is where a group is joined. X10 = NC(=O)c1ccc(-c2ccc(S(=O)(=O)*)cc2)cc1; Benzoyl(4-OPh) = O=C(c1ccc(Oc2ccccc2)cc1)*; d(βAsp) = O=C(O)[C@@H](CC(=O)[*:2])N[*:1]; NMeY = CN[C@@H](Cc1ccc(O)cc1)C(=O)O; NMeI = CC[C@H](C)[C@H](NC)C(=O)O; NMeT = CN[C@H](C(=O)O)[C@@H](C)O; NMeE = CN[C@@H](CCC(=O)O)C(=O)O; NMeN = CN[C@@H](CC(N)=O)C(=O)O; NMeM = CN[C@@H](CCSC)C(=O)O; β3hP = O=C(O)C[C@@H]1CCCN1; Dab = NCC[C@H](N)C(=O)O; GABA = NCCCC(=O)O
Just the number, please; pIC50 means minus log10 of the concentration in mol/L.

Below, each entry is followed by its recorded pIC50 result.
[[record]]
compound = "CC(C)C[C@H](NC(=O)[C@H](CCN)NC(=O)[C@H](CC(=O)O)NC(=O)[C@H](CC(N)=O)NC(=O)CCCNC(=O)c1ccc(Oc2ccccc2)cc1)C(=O)N(C)[C@@H](CCC(=O)O)C(=O)N1CCC[C@H]1C(N)=O [Compound 109] ({Benzoyl(4-OPh)-GABA}-ND[Dab]L[NMeE]P-NH2; N-terminus assumed)"
property_measured = "pIC50"
measured_value = 9.15

[[record]]
compound = "CC[C@H](C)[C@@H](C(=O)N1CCC[C@H]1CC(N)=O)N(C)C(=O)[C@H](CC(C)C)NC(=O)[C@H](C)NC(=O)C[C@@H](NS(=O)(=O)c1ccc(-c2ccc(C(N)=O)cc2)cc1)C(=O)O [Compound 635] ({X10-d(βAsp)}-AL[NMeI][β3hP]-NH2; N-terminus assumed)"
property_measured = "pIC50"
measured_value = 9.08

[[record]]
compound = "CC[C@H](C)[C@@H](C(=O)N1CCC[C@H]1C(N)=O)N(C)C(=O)[C@H](CC(C)C)NC(=O)[C@H](C)NC(=O)[C@H](CC(=O)O)NC(=O)[C@H]([C@@H](C)O)N(C)C(=O)CCCNC(=O)c1ccc(Oc2ccccc2)cc1 [Compound 131] ({Benzoyl(4-OPh)-GABA}-[NMeT]DAL[NMeI]P-NH2; N-terminus assumed)"
property_measured = "pIC50"
measured_value = 9.44

[[record]]
compound = "CC[C@H](C)[C@@H](C(=O)N1CCC[C@H]1C(N)=O)N(C)C(=O)[C@H](CC(C)C)NC(=O)[C@H](C)NC(=O)[C@H](CC(=O)O)NC(=O)[C@H](CCSC)N(C)C(=O)CCCNC(=O)c1ccc(Oc2ccccc2)cc1 [Compound 122] ({Benzoyl(4-OPh)-GABA}-[NMeM]DAL[NMeI]P-NH2; N-terminus assumed)"
property_measured = "pIC50"
measured_value = 9.80

[[record]]
compound = "CC(C)C[C@H](NC(=O)[C@H](CCN)NC(=O)[C@H](CC(=O)O)NC(=O)[C@H](CC(N)=O)N(C)C(=O)CCCNC(=O)c1ccc(Oc2ccccc2)cc1)C(=O)N(C)[C@@H](CCC(=O)O)C(=O)N1CCC[C@H]1C(N)=O [Compound 113] ({Benzoyl(4-OPh)-GABA}-[NMeN]D[Dab]L[NMeE]P-NH2; N-terminus assumed)"
property_measured = "pIC50"
measured_value = 8.66


Query: Could you share which pIC50 value was measured for CC[C@H](C)[C@@H](C(=O)N1CCC[C@H]1C(N)=O)N(C)C(=O)[C@H](CC(C)C)NC(=O)[C@H](C)NC(=O)[C@H](CC(=O)O)NC(=O)[C@H](Cc1ccc(O)cc1)N(C)C(=O)CCCNC(=O)c1ccc(Oc2ccccc2)cc1 [Compound 129] ({Benzoyl(4-OPh)-GABA}-[NMeY]DAL[NMeI]P-NH2) ?
Response: 9.34

====

target: MMP2 (Homo sapiens); test: Inhibitory effects on human MMP2 (Method 1), enzyme assay with MOCAc-Pro-Leu-Gly-Leu-A2pr(Dnp)-Ala-Arg-NH2 substrate, 96-well; format: biochemical; conditions: Test Example No. 1-1 (Method 1, 96-well microplate); read-out: Human MMP2, IC50
pIC50: −log10 of the molar value. *1 amine or outer side, *2 acyl side, *3 side chain or, on linkers, in order; H or OH if unused. Where a SMILES comes first, the peptide text is derived from it. [ ]: non-standard residue; d: D form. The star is where a group is joined. Benzoyl(4-O-C6H4-4-CONHMe) = CNC(=O)c1ccc(Oc2ccc(C(=O)*)cc2)cc1; Benzenesulfonyl(4-OPh) = O=S(=O)(c1ccc(Oc2ccccc2)cc1)*; X19 = O=C(O)CNC(=O)c1ccc(Oc2ccc(C(=O)*)cc2)cc1; Benzoyl(4-OPh) = O=C(c1ccc(Oc2ccccc2)cc1)*; d(βAsp) = O=C(O)[C@@H](CC(=O)[*:2])N[*:1]; X13 = Cc1ccc(C#Cc2ccc(S(=O)(=O)*)s2)cc1; X5 = O=S(=O)(c1ccc(-c2ccc(CO)cc2)cc1)*; NMeI = CC[C@H](C)[C@H](NC)C(=O)O; NMeE = CN[C@@H](CCC(=O)O)C(=O)O; NMeM = CN[C@@H](CCSC)C(=O)O; β3hP = O=C(O)C[C@@H]1CCCN1; Dab = NCC[C@H](N)C(=O)O; Dap = NC[C@H](N)C(=O)O; Ahx = NCCCCCC(=O)O; Ava = NCCCCC(=O)O; GABA = NCCCC(=O)O; βAla = NCCC(=O)O
Note to self: values exactly at 9 are Condition met. So pIC50 at or above 9 is Condition met, below is Condition not met.

These solved cases illustrate the format of a correct answer.
[[record]]
compound = "CNC(=O)c1ccc(Oc2ccc(C(=O)NCCCCCC(=O)N[C@@H](CCCCN)C(=O)N[C@@H](CC(=O)O)C(=O)N[C@@H](CCN)C(=O)N[C@@H](CC(C)C)C(=O)N(C)[C@@H](CCC(=O)O)C(=O)N3CCC[C@H]3CC(N)=O)cc2)cc1 [Compound 186] ({Benzoyl(4-O-C6H4-4-CONHMe)-Ahx}-KD[Dab]L[NMeE][β3hP]-NH2; N-terminus assumed)"
target_under_test = "MMP2 (Homo sapiens)"
qualitative_label = "Condition not met"

[[record]]
compound = "CSCC[C@H](NC(=O)[C@H](CC(C)C)NC(=O)[C@H](C)NC(=O)[C@H](CC(=O)O)NC(=O)[C@H](CC(N)=O)NC(=O)CCCCNC(=O)c1ccc(Oc2ccc(C(=O)NCC(=O)O)cc2)cc1)C(=O)N1CCC[C@H]1C(N)=O [Compound 178] ({X19-Ava}-NDALMP-NH2; N-terminus assumed)"
target_under_test = "MMP2 (Homo sapiens)"
qualitative_label = "Condition not met"

[[record]]
compound = "CC(C)C[C@H](NC(=O)[C@H](CN)NC(=O)C[C@@H](NS(=O)(=O)c1ccc(-c2ccc(CO)cc2)cc1)C(=O)O)C(=O)N(C)[C@@H](CCC(=O)O)C(=O)N1CCC[C@H]1CC(N)=O [Compound 637] ({X5-d(βAsp)}-[Dap]L[NMeE][β3hP]-NH2; N-terminus assumed)"
target_under_test = "MMP2 (Homo sapiens)"
qualitative_label = "Condition met"

[[record]]
compound = "CSCC[C@@H](C(=O)N1CCC[C@H]1C(N)=O)N(C)C(=O)[C@H](CC(C)C)NC(=O)[C@H](C)NC(=O)[C@H](CC(=O)O)NC(=O)[C@H](CC(N)=O)NC(=O)CCNS(=O)(=O)c1ccc(C#Cc2ccc(C)cc2)s1 [Compound 587] ({X13-βAla}-NDAL[NMeM]P-NH2)"
target_under_test = "MMP2 (Homo sapiens)"
qualitative_label = "Condition met"

[[record]]
compound = "CC[C@H](C)[C@@H](C(=O)N1CCC[C@H]1C(N)=O)N(C)C(=O)[C@H](CC(C)C)NC(=O)[C@H](C)NC(=O)[C@H](CC(=O)O)NC(=O)[C@H](CCC(=O)O)N(C)C(=O)CCCNC(=O)c1ccc(Oc2ccccc2)cc1 [Compound 126] ({Benzoyl(4-OPh)-GABA}-[NMeE]DAL[NMeI]P-NH2; N-terminus assumed)"
target_under_test = "MMP2 (Homo sapiens)"
qualitative_label = "Condition met"


As a next step, examine the compound that follows.
Query: Determine whether this compound has pIC50 no lower than 9: CC[C@H](C)[C@@H](C(=O)N1CCC[C@H]1CC(N)=O)N(C)C(=O)[C@H](CC(C)C)NC(=O)[C@H](CCN)NC(=O)[C@H](CC(=O)O)NC(=O)[C@H](NC(=O)CCCCNS(=O)(=O)c1ccc(Oc2ccccc2)cc1)[C@H](C)O [Compound 85] ({Benzenesulfonyl(4-OPh)-Ava}-[dT]D[Dab]L[NMeI][β3hP]-NH2; N-terminus assumed)
Response: Condition met
